B1: 2M8U (parent)
chain: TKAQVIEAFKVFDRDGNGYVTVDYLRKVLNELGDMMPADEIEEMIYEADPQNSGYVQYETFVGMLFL

# Variants of: B1
# assay: folding stability dG (cDNA display proteolysis); higher = more stable
# assayContext: PBS, room temperature
metric: folding stability dG (kcal/mol)
One number for each entry, in kcal/mol.

Qu. Please give the documented folding stability dG of TKAQVIEAFKVFDRDGNGYVTVDSLRKVLNELGDMMPADEIEEMIYEADPQNSGYVQYETFVGMLFL
Ans. 4.27

Qu. Please give the documented folding stability dG of TKAQVIEAFKVFDRDGNIYVTVDYLRKVLNELGDMMPADEIEEMIYEADPQNSGYVQYETFVGMLFL
Ans. 2.57

Qu. Please give the documented folding stability dG of TKAQVIEAFKVFDRDGNGYVTVDYLRKVLNELGHMMPADEIEEMIYEADPQNSGYVQYETFVGMLFL
Ans. 3.53

Qu. Please give the documented folding stability dG of TFAQVIEAFKVFDRDGNGYVTVDYLRKVLNELGDMMPADEIEEMIYEADPQNSGYVQYETFVGMLFL
Ans. 2.94

Qu. Please give the documented folding stability dG of TKLQVIEAFKVFDRDGNGYVTVDYLRKVLNELGDMMPADEIEEMIYEADPQNSGYVQYETFVGMLFL
Ans. 3.21

Moving on to the next variant.
Qu. Please give the documented folding stability dG of TKAQVIEAFKVFDIDGNGYVTVDYLRKVLNELGDMMPADEIEEMIYEADPQNSGYVQYETFVGMLFL
Ans. 3.77

Data origin: the MegaScale stability set (Tsuboyama et al. 2023)
